Examples of molecules with documented GI50 follow.
# Test system: HOP-92 NSCLC
# assay: NCI tumour cell line growth inhibition, 48 h

See these solved cases before continuing.
COc1ccc(Cn2cc3c(c2-c2ccc(OC)cc2)CCc2cnoc2-3)cc1 : 1120 nM
Nc1nc(Cl)c(N=Nc2ccc(Cl)cc2)c(NCC2(CO)CC2)n1 : 1080 nM
CN1c2ccccc2C(C)(C)C12C=Cc1cc(O)ccc1O2 (configuration not stated) : 1810 nM
COc1ccc(Nc2c3ccccc3nc3ccccc23)cc1 : 259 nM
Cc1cc(Cl)ccc1NC(=O)c1cc2ccccc2cc1O : 146 nM

The molecule listed as COc1cc2c3c(n(CCCI)c(=O)c2cc1OC)-c1cc2c(cc1C3=O)OCO2 has a reported GI50 of > 100000 nM

According to the records, this molecule COc1cc(O)c(C(=O)/C=C/c2ccc(O)cc2)c(O)c1[C@@H]1C[C@H](CCc2ccc(O)cc2)O[C@H](c2ccc(O)cc2)C1 displays GI50 of 2000 nM

Hello, the source for this data is PubChem BioAssay (NCI), in case you need it.
